Data provenance: patent US7625917B2

# test-target: recombinant HIV-1 reverse transcriptase (Human immunodeficiency virus type 1 group M subtype B, UniProt P03366)
# Construct: recombinant HIV-1 reverse transcriptase; S. Hughes, ABL Basic Research NCI-FCRDC, Frederick Md
# experiment-notes: HIV-1 reverse transcriptase assay (rAdT and rCdG template/primer)
# Assay type: biochemical
value-type: IC50

Q) So what's the measured IC50 for this one? O=C(CCCC[n+]1ccccc1)Sc1ccccc1C(=O)Nc1ccc(S(=O)(=O)c2ccc([N+](=O)[O-])cc2)cc1 [Compound 47]
A) > 100 µM

====

# test-target: recombinant HIV-1 NCp7 protein (Human immunodeficiency virus type 1 group M subtype B, UniProt P03347)
# Construct: recombinant HIV-1 NCp7 protein
# experiment-notes: Trp37 zinc finger fluorescence (zinc ejection) assay
# Format: biochemical
# condition-parameters: Table 5; average decrease in relative fluorescence units over 30 min
Please mark Fulfilled if the recorded Zinc Finger Reactivity RFU/min is equal to or greater than 2 RFU/min, and Not fulfilled if it falls below.

Observe how each entry below is paired with its result.
>>> discrete_label("CC(=O)NS(=O)(=O)c1ccc(NC(=O)c2cccc(NC(=O)CCCl)c2)cc1")
"Fulfilled"
>>> discrete_label("COc1ccc(C(=O)Sc2ccccc2C(=O)Nc2ccc(S(=O)(=O)NC(C)=O)cc2)cc1")
"Fulfilled"

Q) Please indicate if the recorded Zinc Finger Reactivity RFU/min for CC(=O)NS(=O)(=O)c1ccc(NC(=O)c2ccccc2NC(=O)CCl)cc1 meets or exceeds 2 RFU/min.
A) Not fulfilled

Q) Repeat for the following molecule: CC(=O)NS(=O)(=O)c1ccc(NC(=O)c2ccccc2SC(=O)CCCCBr)cc1
A) Not fulfilled

Q) Repeat for the following molecule: CC(=O)NS(=O)(=O)c1ccc(NC(=O)c2ccccc2SC(C)=O)cc1
A) Fulfilled

Q) Repeat for the following molecule: CC(=O)NS(=O)(=O)c1ccc(NC(=O)c2ccccc2SC(=O)c2ccccc2)cc1
A) Fulfilled

Q) Repeat for the following molecule: CC(=O)NS(=O)(=O)c1ccc(NC(=O)c2ccccc2SC(=O)CCCC[n+]2ccccc2)cc1
A) Fulfilled
